target: GDP-bound KRAS wild-type protein (Homo sapiens, UniProt P01116); experiment: Binding to KRAS by surface plasmon resonance (SPR), Single Cycle Kinetics; conditions: SPR Single Cycle Kinetics, GDP-bound KRAS wild-type protein, 1:1 binding model; read-out: KRAS KD
Sequence (P01116 whole entry): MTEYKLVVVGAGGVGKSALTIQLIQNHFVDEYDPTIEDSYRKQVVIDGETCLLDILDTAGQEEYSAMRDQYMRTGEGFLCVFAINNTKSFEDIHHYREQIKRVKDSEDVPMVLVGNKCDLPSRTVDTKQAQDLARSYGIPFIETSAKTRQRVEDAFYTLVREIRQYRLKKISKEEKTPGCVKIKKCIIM
Where a SMILES comes first, the peptide text is derived from it. Bridges are numbered along the chain shown (N, C = ends). [ ]: non-standard residue; d: D form. The star is where a group is joined. hPhe(3-Cl-4-CF3) = N[C@@H](CCc1ccc(C(F)(F)F)c(Cl)c1)C(=O)O; NPrPhe(4-CF3) = CCCN[C@@H](Cc1ccc(C(F)(F)F)cc1)C(=O)O; NEtPhe(4-CF3) = CCN[C@@H](Cc1ccc(C(F)(F)F)cc1)C(=O)O; hPhe(3,4-Cl2) = N[C@@H](CCc1ccc(Cl)c(Cl)c1)C(=O)O; NMeGly(cPent) = CN[C@H](C(=O)O)C1CCCC1; Hyp = O=C(O)[C@@H]1C[C@@H](O)CN1; NMeD = CN[C@@H](CC(=O)O)C(=O)O; NMeL = CN[C@@H](CC(C)C)C(=O)O; Morpholide = C1CN(*)CCO1; NMeA = CN[C@@H](C)C(=O)O; Ac5c = NC1(C(=O)O)CCCC1; Aze = O=C(O)[C@@H]1CCN1; Ac3c = NC1(C(=O)O)CC1; Sar = CNCC(=O)O
measure-name: pKd
// pKd here means minus log10 of the molar concentration (mol/L)

INSERT INTO measurements (molecule, measure_name, recorded_result) VALUES
  ('CCCN1C(=O)CN(C)C(=O)CNC(=O)[C@H]([C@@H](C)CC)NC(=O)[C@H](CC(C)C)N(C)C(=O)C[C@@H](C(=O)N(C)C)NC(=O)[C@H](C2CCCC2)N(C)C(=O)C2(CCCC2)NC(=O)[C@@H]2CCCN2C(=O)[C@H](CCc2ccc(C(F)(F)F)c(Cl)c2)NC(=O)CN(C)C(=O)[C@@H]1Cc1ccc(C(F)(F)F)cc1 [PP0361] ([NMeL]IG[Sar][NPrPhe(4-CF3)][Sar][hPhe(3-Cl-4-CF3)]P[Ac5c][NMeGly(cPent)]D-NMe2; lactam N-11)', 'pKd', 9.14),
  ('CC[C@H](C)[C@@H]1NC(=O)[C@H](COC)N(C)C(=O)C[C@@H](C(=O)N2CCCCC2)N(C)C(=O)[C@H](C2CCCC2)N(C)C(=O)C2(CC(C)(C)C2)NC(=O)[C@@H]2C[C@@H](OC(C)C)CN2C(=O)[C@H](CCc2cc(F)c(C(F)(F)F)c(F)c2)NC(=O)CN(C)C(=O)[C@H](Cc2ccc(C(F)(F)F)cc2)N2CC/C=C\C[C@@H](C2=O)N(C)C(=O)CN(C)C1=O [PP2663]', 'pKd', 9.62),
  ('CC[C@H](C)[C@@H]1NC(=O)[C@H](CC(C)C)N(C)C(=O)C[C@@H](C(=O)N2CCOCC2)N(C)C(=O)[C@H](C2CCCC2)N(C)C(=O)C2(CCCC2)NC(=O)[C@@H]2CCCN2C(=O)[C@H](CCc2ccc(Cl)c(Cl)c2)NC(=O)CN(C)C(=O)[C@H](Cc2ccc(C(F)(F)F)cc2)N(CC)C(=O)[C@@H]2CCN2C(=O)[C@H](C)N(C)C1=O [PP0223] ([NMeL]I[NMeA][Aze][NEtPhe(4-CF3)][Sar][hPhe(3,4-Cl2)]P[Ac5c][NMeGly(cPent)][NMeD]-Morpholide; lactam N-11)', 'pKd', 9.40),
  ('CCCN1C(=O)[C@@H]2CCN2C(=O)[C@H](C)N(C)C(=O)[C@H]([C@@H](C)CC)NC(=O)[C@H](CC(C)C)N(C)C(=O)C[C@@H](C(=O)N2CCOCC2)N(C)C(=O)[C@H](C2CCCC2)N(C)C(=O)C2(CC2)NC(=O)[C@@H]2CCCN2C(=O)[C@H](CCc2ccc(C(F)(F)F)c(Cl)c2)NC(=O)CN(C)C(=O)[C@@H]1Cc1ccc(C(F)(F)F)cc1 [PP0224] ([NMeL]I[NMeA][Aze][NPrPhe(4-CF3)][Sar][hPhe(3-Cl-4-CF3)]P[Ac3c][NMeGly(cPent)][NMeD]-Morpholide; lactam N-11)', 'pKd', 9.66);

Okay, now this molecule:
Enquiry: What does the data say about its pKd? Entry: CCCN1C(=O)[C@@H]2CCN2C(=O)CN(C)C(=O)[C@H]([C@@H](C)CC)NC(=O)[C@H](CC(C)C)N(C)C(=O)C[C@@H](C(=O)N2CCOCC2)N(C)C(=O)[C@H](C2CCCC2)N(C)C(=O)C2(CCCC2)NC(=O)[C@@H]2C[C@@H](OCC)CN2C(=O)[C@H](CCc2ccc(C(F)(F)F)c(Cl)c2)NC(=O)CN(C)C(=O)[C@@H]1Cc1ccc(C(F)(F)F)cc1 [PP0410] ([NMeL]I[Sar][Aze][NPrPhe(4-CF3)][Sar][hPhe(3-Cl-4-CF3)][Hyp](Et)[Ac5c][NMeGly(cPent)][NMeD]-Morpholide; lactam N-11)
Return: 10.24

Origin of measurements: patent US20240158446A1
